Listing of recorded Percent Effect by entry.
Test system: Leishmania donovani
Assay: Leishmania intramacrophage assay
Format: functional, organism-based
Design: scale not given: in the data most compounds retested in dose-response had high values
Settings: 30.3 µM; […]
About 1,000 (1.4%) of roughly 69,000 compounds showed an effect of 50% or more. The list comes from a sample in which strong results are over-represented; it also holds close analogues and randomly drawn compounds.
Give the quantity in %, number only.

COc1ncccc1C(=O)N1CCC2(CC1)CC(OC)CO2.O=C(O)C(F)(F)F (stereo not drawn); 56.73

Let's switch to this compound now.
Record O=C1CCCc2[nH]c(=O)c(C(=O)N3CCc4ccccc4C3)cc21 , field Percent Effect: 0.8668

====

Listing of recorded Percent Effect by entry.
System: Leishmania donovani
Assay: Leishmania intramacrophage assay
Type: functional, organism-based
Parameters: scale not given: in the data most compounds retested in dose-response had high values
Settings: 30.3 µM; […]
Among all 69,000 compounds or so, about 1,000 (1.4%) showed an effect of 50% or more. Shown is part of a subset that was picked to be rich in strong results.
Give the quantity in %, number only.

Nc1nnnn1NCc1cccc(Cl)c1Cl; 4.224
CCN(C)CC(=O)N1CCC(c2cc(N3CCOCC3)nc(C)n2)CC1; -5.475
CC(NC(=O)Cn1cc(C(N)=O)c(-c2ccccc2)n1)C1CC1 (configuration not stated); 12.7
Cc1nc(CCN)cc(N2CCC(O)(c3ccc(Cl)cc3)CC2)n1; 77.75

Let's switch to this molecule now.
Record Cc1nc(C2CCNCC2)cc(N2CCOc3ccccc3C2)n1 , field Percent Effect: 38.29

====

Test system: Leishmania donovani
Experiment: Leishmania intramacrophage assay
Assay type: functional, organism-based
Design: scale not given: in the data most compounds retested in dose-response had high values
Details: 30.3 µM; […]
Among all 69,000 compounds or so, about 1,000 (1.4%) showed an effect of 50% or more. The entries come from a sample that favours strong results as a whole.
Listing of recorded Percent Effect by entry.
Give the quantity in %, number only.

Check out these entries, answers already filled in.
Cl.O=C(c1ccccc1F)N1CC2(CCNCC2)c2cc(Cl)ccc21; 46.46
CNC(=O)CN1CCOC(c2cccc(N)n2)C1 (stereo unspecified); 18.21
COCCN1CCCCC12CC(=O)N(c1cccc(C#N)c1)C2.O=C(O)C(F)(F)F (stereo unspecified); 50.28
CCc1nc2c(NCC3COc4ccccc4C3)ncnc2o1 (stereo unspecified); 35.57

Hey, Leishmania donovani data for COCC(=O)NCc1cc2n(n1)CCCN(CCCC1CCCC1)C2 : Percent Effect came out at 20.98

Hey, Leishmania donovani data for COCCN1CCCCC12CC(=O)N(c1ccccc1OC)C2.O=C(O)C(F)(F)F (stereo unspecified) : Percent Effect came out at 20.15

Hey, Leishmania donovani data for COc1ccc(CN2CCCCCC2c2cccs2)c(OC)c1 (stereo unspecified) : Percent Effect came out at 16.39

Hey, Leishmania donovani data for CC(C)C[C@H](N)C(=O)N1CC2(CCNCC2)c2cc(Cl)ccc21.Cl.Cl : Percent Effect came out at 94.41

Hey, Leishmania donovani data for C[C@@H](N)C(=O)N1CC2(CCNCC2)c2cc(Cl)ccc21.Cl.Cl : Percent Effect came out at 18.29

Hey, Leishmania donovani data for Cc1ccc2c(c1)C1(CCNCC1)CN2C(=O)C(C)C : Percent Effect came out at 17.68

Hey, Leishmania donovani data for CC(C)c1nnc2n1CC(CNCc1nc3ccccc3s1)CC2 (stereo unspecified) : Percent Effect came out at -6.919
